Reference source: patent US20240279318A1

Could you please report measured koff for the items listed next?
study target: T1, AFP158/HLA-A*02:01 complex (human)
T1 construct: flowed as analyte in SPR
protocol: SPR, crude scFv captured, pMHC analyte;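 note: Peptide-MHC complex at several concentrations passed over captured scFv, association then buffer-driven dissociation, on- and off-rates fitted from the curves and KD estimated from them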
Give the quantity in s⁻¹, number only.

For AS170036 VL1VH1-VLH98V (scFv) scFv: QSALTQPRSVSGSPGQSVTISCAGTSSDVGSENYVSWYQQHPGKAPKLMIYQVNKRASGVPDRFSGSKSGNTASLTISGLQAEDEADYYCASYRSSDVNIVFGGGTKLTVLGGGGSGGGGSGGGGSEVQLVESGGGLVQPGGSLRLSCAASGFTFSSYAMSWVRQAPGKGLEWVSTINSGTGSPYYADSVKGRFTISRDNSKNTLYLQMNSLRAEDTAVYYCAKNFFDGSWFLGPPAMDYWGQGTLVTVSSHHHHHH the binder record lists koff as 0.018

# binder AS170036 VL1VH1-VHG56N (scFv) scFv: QSALTQPRSVSGSPGQSVTISCAGTSSDVGSENYVSWYQQHPGKAPKLMIYQVNKRASGVPDRFSGSKSGNTASLTISGLQAEDEADYYCASYRSSDHNIVFGGGTKLTVLGGGGSGGGGSGGGGSEVQLVESGGGLVQPGGSLRLSCAASGFTFSSYAMSWVRQAPGKGLEWVSTINSGTNSPYYADSVKGRFTISRDNSKNTLYLQMNSLRAEDTAVYYCAKNFFDGSWFLGPPAMDYWGQGTLVTVSSHHHHHH ; its koff = 0.025

So for AS170036 VL1VH1-VHG108M (scFv) scFv: QSALTQPRSVSGSPGQSVTISCAGTSSDVGSENYVSWYQQHPGKAPKLMIYQVNKRASGVPDRFSGSKSGNTASLTISGLQAEDEADYYCASYRSSDHNIVFGGGTKLTVLGGGGSGGGGSGGGGSEVQLVESGGGLVQPGGSLRLSCAASGFTFSSYAMSWVRQAPGKGLEWVSTINSGTGSPYYADSVKGRFTISRDNSKNTLYLQMNSLRAEDTAVYYCAKNFFDGSWFLMPPAMDYWGQGTLVTVSSHHHHHH , the logged koff turned out to be 0.013
